Entry source: patent US20180016306A1

Target: aRSV-Fab (Fab fragment of anti-RSV monoclonal IgG Palivizumab, Synagis)
Assay: SPR (Biacore 3000), aRSV-Fab on CM5 chip, peptide flowed, 25 C, pH 7.4, 1:1 fit
# key: entry, value: kon
Please give a number only; it is taken to be in M⁻¹ s⁻¹.

Worked cases, answers included:
{"BINDER": "LB5t-Q15H.1d (designed binder) GPLGSEQVTIKENIYFEDGTVHTATFKGTFAEATAEAYRYADLLSKEHGKYTADLEDGGYTINIRFAG", "kon [M⁻¹ s⁻¹]": 325000}
{"BINDER": "LB5t-T18D.1d (designed binder) GPLGSEQVTIKENIYFEDGTVQTADFKGTFAEATAEAYRYADLLSKEHGKYTADLEDGGYTINIRFAG", "kon [M⁻¹ s⁻¹]": 317000}
{"BINDER": "LB5t-A17H.1d (designed binder) GPLGSEQVTIKENIYFEDGTVQTHTFKGTFAEATAEAYRYADLLSKEHGKYTADLEDGGYTINIRFAG", "kon [M⁻¹ s⁻¹]": 80000}

query: What measured kon goes with LB5t-T18H.1d (designed binder) GPLGSEQVTIKENIYFEDGTVQTAHFKGTFAEATAEAYRYADLLSKEHGKYTADLEDGGYTINIRFAG ?
result: 422000

query: What measured kon goes with LB5t-T18Q.1d (designed binder) GPLGSEQVTIKENIYFEDGTVQTAQFKGTFAEATAEAYRYADLLSKEHGKYTADLEDGGYTINIRFAG ?
result: 373000
